Each entry below carries its reported TGI.
- Tested on: M14 melanoma
- METHOD: NCI tumour cell line growth inhibition, 48 h

The value of TGI measured for the compound CC(C)(C)OC(=O)c1ccc(NCC2=CC(=O)C=CC2=O)cc1 turned out to be 17.6 µM

The value of TGI measured for the compound NC(N)=Nc1nc2ccc([N+](=O)[O-])cc2[nH]1 turned out to be > 100 µM

The value of TGI measured for the compound C/C(=N\N=C(\[Se])N(C)C)c1ccccn1 turned out to be 3.24 µM

====

- Test system: NCI-H23 lung
- METHOD: NCI tumour cell line growth inhibition, 48 h
ENDPOINT_NAME: GI50

Below are worked cases with known answers.
MOLECULE: CCc1cc2ncc(CN3CCN(c4ccc(C(=O)NC)nc4)CC3)cc2[nH]c1=O
SYSTEM_UNDER_TEST: NCI-H23 lung
ENDPOINT_NAME: GI50
RESULT: 53.5 µM

MOLECULE: CCOC(=O)c1c(C)nc2c(c1N)CC(=O)N2CCc1ccccc1
SYSTEM_UNDER_TEST: NCI-H23 lung
ENDPOINT_NAME: GI50
RESULT: 5.46 µM

MOLECULE: C=C(CC(=O)O)C(=O)O (tested in a mixture with another compound)
SYSTEM_UNDER_TEST: NCI-H23 lung
ENDPOINT_NAME: GI50
RESULT: > 50 µg/mL

MOLECULE: Cc1[nH]nc2c1N=C(c1ccccc1F)c1cc(C(N)=O)ccc1N2
SYSTEM_UNDER_TEST: NCI-H23 lung
ENDPOINT_NAME: GI50
RESULT: 6.85 µM

The recorded GI50 with NCI-H23 lung for O=C1C(=O)c2ccccc2C(O)=C1CCCc1ccc(C2CCCCCC2)cc1 was 0.649 µM
